- System: Mast/stem cell growth factor receptor Kit (Homo sapiens), P10721 [T670I]
- Sequence (P10721 whole entry T670I): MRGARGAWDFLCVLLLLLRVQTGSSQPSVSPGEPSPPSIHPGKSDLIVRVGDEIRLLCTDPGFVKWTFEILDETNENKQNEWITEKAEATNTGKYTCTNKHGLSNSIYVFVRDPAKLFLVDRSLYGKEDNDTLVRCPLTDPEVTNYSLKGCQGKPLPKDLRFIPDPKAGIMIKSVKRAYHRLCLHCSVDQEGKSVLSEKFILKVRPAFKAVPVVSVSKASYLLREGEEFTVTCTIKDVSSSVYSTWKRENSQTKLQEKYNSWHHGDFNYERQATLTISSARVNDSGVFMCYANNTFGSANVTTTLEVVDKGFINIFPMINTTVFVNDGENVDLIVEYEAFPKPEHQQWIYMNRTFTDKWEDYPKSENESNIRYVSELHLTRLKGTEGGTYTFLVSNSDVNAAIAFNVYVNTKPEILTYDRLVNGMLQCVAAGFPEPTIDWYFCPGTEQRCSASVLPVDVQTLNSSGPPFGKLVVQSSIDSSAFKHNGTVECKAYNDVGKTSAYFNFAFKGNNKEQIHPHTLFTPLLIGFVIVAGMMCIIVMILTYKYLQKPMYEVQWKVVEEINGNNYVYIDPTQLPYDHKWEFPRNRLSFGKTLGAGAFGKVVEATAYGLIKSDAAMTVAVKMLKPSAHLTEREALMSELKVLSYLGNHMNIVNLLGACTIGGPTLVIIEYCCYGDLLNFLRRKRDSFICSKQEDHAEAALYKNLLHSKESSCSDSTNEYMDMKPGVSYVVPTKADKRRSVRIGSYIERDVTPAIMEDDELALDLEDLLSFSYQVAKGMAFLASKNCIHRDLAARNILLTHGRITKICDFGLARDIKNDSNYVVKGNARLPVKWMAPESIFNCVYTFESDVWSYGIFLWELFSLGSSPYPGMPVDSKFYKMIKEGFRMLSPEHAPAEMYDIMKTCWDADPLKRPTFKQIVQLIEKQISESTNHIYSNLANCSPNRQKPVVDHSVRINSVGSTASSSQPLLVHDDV
- RECORDED_CONDITIONS: at 0.1 µM
MEASUREMENT_LABEL: inhibition (%)
// note: answer is a bare numeric in %

Answered cases to consult:
Cc1ccc(C(=O)NC2CCC2)cc1-c1ccc(C(=O)NCC2CC2)cc1 :: 2.13
COc1cc(C)c(N(C)C(=O)CN(C)C)cc1Nc1nc(Nc2cccc(F)c2C(N)=O)c2cc[nH]c2n1 :: -0.51
CN(C)c1ccc2c(c1)/C(=C/Nc1ccc(S(N)(=O)=O)cc1)C(=O)N2 :: 3.39
CCc1nccc2c1nc(-c1nonc1N)n2CC :: -0.13
C/C(Nc1ccc(S(N)(=O)=O)cc1)=C1/C(=O)Nc2ccccc21 :: 21

Asked: # return recorded inhibition for entry COC(=O)Nc1nc2ccc(Sc3ccc(NC(=O)Nc4cc(C(F)(F)F)ccc4F)cc3)cc2[nH]1
Given back: -0.05

Asked: Output measured inhibition for this item: O=C(Nc1ccc(Oc2ccc3[nH]c(NC(=O)c4ccccc4)nc3c2)cc1)Nc1cc(C(F)(F)F)ccc1F
Given back: 5.51

Asked: State, in one line, measured inhibition of O=C(Nc1n[nH]c2cc(-c3ccccc3)ccc12)C1CC1
Given back: 4.34

Asked: Read the entry COc1cccc(-n2cnc3c(N/N=C/c4ccncc4)ncnc32)c1 and write its reported inhibition.
Given back: -2.23

Asked: Quick one: give measured inhibition for COc1cccc(/C=N/Nc2ncnc3c2cnn3-c2cccc(OC)c2)c1
Given back: 1.91

---

- TESTED_TARGET: Serine/threonine-protein kinase Nek6 (Homo sapiens);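 note: values are mean inhibition of NEK6 from the GSK PKIS screen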
- RECORDED_CONDITIONS: at 1 µM
MEASUREMENT_LABEL: inhibition (%)
Report the figure in % without appending any unit label.

The cases that follow already have their inhibition on record.
CCC(=O)Nc1ccc(C)c(-c2ccc(C(=O)NCC3CC3)cc2)c1 :: 0.12
c1ccc(-c2n[nH]cc2-c2ccnc(-c3ccc(OCCN4CCOCC4)cc3)c2)nc1 :: -2.27
NC(=O)c1cc(-c2ccc(F)cc2)cc(-c2ccncc2)c1N :: 6.66

Asked: Give inhibition for the following compound: COc1cc2ncn(-c3cc(OCc4ccccc4C(F)(F)F)c(C(C)=O)s3)c2cc1OC
Given back: 3.34

Asked: State its inhibition for this compound: COc1cc(Nc2ncc3c(C)nc(-c4cccc(C(F)(F)F)c4)n3n2)cc(OC)c1OC
Given back: 9.1

---

- TESTED_TARGET: Tyrosine-protein kinase Fyn (Homo sapiens)
- RECORDED_CONDITIONS: at 1 µM
- Description: GSK_PKIS: FYN mean inhibition at 1 uM [Nanosyn]
MEASUREMENT_LABEL: inhibition
Hi, when you answer, please include the unit after the number. Thanks!

These solved cases illustrate the format of a correct answer.
COc1cc(Nc2ncc(-c3ccccc3)o2)cc(OC)c1OC :: 37.5%
O=C(NCC1CC1)c1ccc(-c2cccc(C(=O)NC3CC3)c2)cc1 :: 2.23%
COc1cccc(-n2cnc3c(N/N=C/c4ccncc4)ncnc32)c1 :: 25.6%
Fc1ccc(-c2ncn(C3CCNCC3)c2-c2ccnc(Oc3ccc(Oc4ccccc4)cc3)n2)cc1 :: 5.66%

Asked: Fill in inhibition for record COc1cc(Nc2ncc3c(C)nc(-c4cccc(Oc5ccccc5)c4)n3n2)cc(OC)c1OC
Given back: 8.45%

---

# inhibition values compiled below
- TESTED_TARGET: High affinity nerve growth factor receptor (Homo sapiens);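 note: each value is the mean percent inhibition of TRKA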
- RECORDED_CONDITIONS: at 1 µM
Numeric only. Scale: %

Nc1nccc(-c2c(-c3ccc(F)cc3)ncn2C2CCC(O)CC2)n1 (stereo not given) :: -0.08
Cc1ccc(C(=O)NC(C)C)cc1-c1ccc(C(=O)NCC2CC2)cc1 :: 0.4
c1ccc(-c2n[nH]cc2-c2ccnc(-c3ccc(OCCN4CCOCC4)cc3)c2)nc1 :: -0.7
CN(C)CCCNc1nccc(-c2c(-c3ccc(F)cc3)nn3cc(C(F)(F)F)ccc23)n1 :: 2.77
NCc1ccc(-n2c(-c3nonc3N)nc3cnccc32)cc1 :: 2.81
O=C(Nc1n[nH]c2nc(-c3ccc(O)cc3)c(Br)cc12)C1CC1 :: 12.3

Asked: Check the records and state inhibition for Cc1nnc(-c2ccc(C)c(-c3ccc(C(=O)NCc4ccc(Cl)cc4)cc3)c2)o1
Given back: 3.12

Asked: Name the recorded inhibition of the compound listed here: CN(C)CCOc1ccc(-c2cc(-c3ccc4c(c3)CCC4=NO)c(-c3ccncc3)o2)cc1
Given back: -2.77

Asked: Entry Cc1ccc(C(=O)NC2CCC2)cc1-c1ccc(C(=O)NCC2CC2)cc1 needs its inhibition filled in; supply it.
Given back: 3.19

Asked: Name the recorded inhibition of the item c1ccc(Oc2ccc(Nc3ncc(-c4ccccc4)o3)cc2)cc1 in your answer.
Given back: 3.28

---

- TESTED_TARGET: Tyrosine-protein kinase CSK (Homo sapiens) (UniProt P41240);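 note: each value is an averaged inhibition reading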
- Sequence (P41240 2-450 limits assumed): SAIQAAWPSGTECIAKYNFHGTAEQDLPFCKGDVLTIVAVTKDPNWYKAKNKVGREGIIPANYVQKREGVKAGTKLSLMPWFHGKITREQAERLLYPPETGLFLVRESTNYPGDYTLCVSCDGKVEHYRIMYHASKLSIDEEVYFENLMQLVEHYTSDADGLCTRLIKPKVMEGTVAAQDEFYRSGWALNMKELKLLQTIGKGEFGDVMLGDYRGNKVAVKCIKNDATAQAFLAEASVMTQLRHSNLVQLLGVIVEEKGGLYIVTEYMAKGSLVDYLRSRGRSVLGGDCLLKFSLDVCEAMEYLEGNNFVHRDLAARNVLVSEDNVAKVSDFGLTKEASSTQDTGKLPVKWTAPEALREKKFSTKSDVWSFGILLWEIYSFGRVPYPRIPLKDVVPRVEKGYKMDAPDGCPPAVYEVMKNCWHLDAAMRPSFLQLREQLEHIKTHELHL
- RECORDED_CONDITIONS: at 1 µM
Reported values of inhibition for individual entries
The answer consists of two parts: a number and, after it, its unit.

O=C(NCC1CC1)c1ccc(-c2cccc(C(=O)NC3CC3)c2)cc1 :: -3.57%
COc1ccc2cc(-c3c(-c4ccncc4)nc(-c4ccc([S+](C)[O-])cc4C)n3C)ccc2c1 (stereo not given) :: -1.23%
CNC(=O)c1cncc(/C=C/c2c(C)cccc2C)c1 :: 24.6%
Fc1ccc(-c2ncn(C3CCNCC3)c2-c2ccnc(Oc3ccc4c(c3)OCO4)n2)cc1 :: 6.08%

Shift focus to the following entry.
Asked: Using known records, supply inhibition for C[C@@H](Oc1cc(-n2cnc3ccc(OCC4CCN(C)CC4)cc32)sc1C(N)=O)c1ccccc1Cl
Given back: 3.59%

---

- TESTED_TARGET: Testis-specific serine/threonine-protein kinase 1 (Homo sapiens) (UniProt Q9BXA7);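 note: reported value is the mean inhibition, from the GSK PKIS kinase screening panel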
- Sequence (Q9BXA7 whole entry): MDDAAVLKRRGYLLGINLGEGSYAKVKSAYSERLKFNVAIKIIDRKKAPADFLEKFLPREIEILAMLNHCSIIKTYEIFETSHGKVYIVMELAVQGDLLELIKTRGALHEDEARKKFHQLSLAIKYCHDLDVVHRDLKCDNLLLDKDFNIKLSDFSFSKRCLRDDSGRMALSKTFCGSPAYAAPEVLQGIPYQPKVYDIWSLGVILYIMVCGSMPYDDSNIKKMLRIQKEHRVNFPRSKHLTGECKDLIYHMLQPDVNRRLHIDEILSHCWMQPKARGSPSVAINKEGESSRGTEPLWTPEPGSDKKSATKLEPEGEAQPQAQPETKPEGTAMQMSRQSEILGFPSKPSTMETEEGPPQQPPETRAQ
- RECORDED_CONDITIONS: at 1 µM
MEASUREMENT_LABEL: inhibition

Known inhibition results, listed for orientation:
Fc1ccc(-c2ncn(CCCN3CCOCC3)c2-c2ccncc2)cc1 :: -0.42%
CCc1ccc(Oc2nccc(-c3c(-c4ccc(F)cc4)ncn3C3CCNCC3)n2)cc1 :: 5.22%
COc1ccc(C2=C(N3CCc4ccccc43)C(=O)NC2=O)cc1 :: 6.13%
O=C1Nc2ccccc2/C1=C/Nc1ccc(-n2cncn2)cc1 :: 7.35%
C/C(Nc1ccc(S(N)(=O)=O)cc1)=C1/C(=O)Nc2ccccc21 :: 5.46%

Asked: Fill in inhibition for record FC(F)(F)c1cccc(Nc2nccc(-c3cnn4nc(-c5ccccc5)ccc34)n2)c1
Given back: 2.01%

---

- TESTED_TARGET: Mitogen-activated protein kinase 11 (Homo sapiens);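 note: reported values are averaged (mean) percent inhibition of p38beta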
- RECORDED_CONDITIONS: at 0.1 µM
MEASUREMENT_LABEL: inhibition
Write the numeric value and follow it with the unit.

Some entries whose results are on file:
c1ccc(-c2n[nH]cc2-c2ccnc(-c3ccc(OCCN4CCOCC4)cc3)c2)nc1 :: -0.65%
COc1ccc2ncn(-c3cc(O[C@H](C)c4ccccc4Cl)c(C(N)=O)s3)c2c1 :: 2.23%
O=C(NCC1CC1)c1ccc(-c2cccc(C(=O)NC3CC3)c2)cc1 :: 2.37%
Fc1ccc(-c2nc3n(c2-c2ccncc2)CCS3)cc1 :: 8.81%

Asked: Give the measured inhibition for COC(=O)Nc1nc2ccc(Sc3ccc(NC(=O)Nc4cc(C(F)(F)F)ccc4F)cc3)cc2[nH]1
Given back: 3.62%

---

- TESTED_TARGET: Receptor tyrosine-protein kinase erbB-2 (Homo sapiens)
- RECORDED_CONDITIONS: at 1 µM
- Description: GSK_PKIS: ERBB2 mean inhibition at 1 uM [Nanosyn]
MEASUREMENT_LABEL: inhibition (%)
Please reply with the bare figure in % and do not write the unit itself.

CN(C)c1ccc2c(c1)/C(=C/Nc1ccc(S(N)(=O)=O)cc1)C(=O)N2 :: 3.44

Asked: Give a short answer stating reported inhibition for CS(=O)(=O)CCNCc1ccc(-c2ccc3ncnc(Nc4ccc(OCc5ccccc5)c(Br)c4)c3c2)o1 .
Given back: 73.5

Asked: Supply reported inhibition belonging to this compound: COc1cc(N2CCN(C(C)C)CC2)ccc1Nc1nc(Nc2ccc(F)cc2C(=O)NC[C@@H](O)CO)c2cc[nH]c2n1
Given back: 10.5

Asked: Give recorded inhibition. O=C1Nc2ccc(I)cc2C1=Cc1cc(Br)c(O)c(Br)c1
Given back: 2.46

Asked: Fill in reported inhibition for this entry: CCC(=O)Nc1ccc(C)c(-c2ccc(C(=O)NCC3CC3)cc2)c1
Given back: 3.96

Asked: Determine its reported inhibition: COc1cc(Nc2ncc3c(C)nc(-c4cccc(Oc5ccccc5)c4)n3n2)cc(OC)c1OC
Given back: -3.48

Asked: Consider the compound O=C(Nc1ccc(Oc2ccc3[nH]c(NC(=O)c4ccccc4)nc3c2)cc1)Nc1cc(C(F)(F)F)ccc1F and give its recorded inhibition.
Given back: 4.41

---

- TESTED_TARGET: Serine/threonine-protein kinase Sgk3 (Homo sapiens);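 note: reported percentages are averaged inhibition values against SGK3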
- Sequence (whole entry): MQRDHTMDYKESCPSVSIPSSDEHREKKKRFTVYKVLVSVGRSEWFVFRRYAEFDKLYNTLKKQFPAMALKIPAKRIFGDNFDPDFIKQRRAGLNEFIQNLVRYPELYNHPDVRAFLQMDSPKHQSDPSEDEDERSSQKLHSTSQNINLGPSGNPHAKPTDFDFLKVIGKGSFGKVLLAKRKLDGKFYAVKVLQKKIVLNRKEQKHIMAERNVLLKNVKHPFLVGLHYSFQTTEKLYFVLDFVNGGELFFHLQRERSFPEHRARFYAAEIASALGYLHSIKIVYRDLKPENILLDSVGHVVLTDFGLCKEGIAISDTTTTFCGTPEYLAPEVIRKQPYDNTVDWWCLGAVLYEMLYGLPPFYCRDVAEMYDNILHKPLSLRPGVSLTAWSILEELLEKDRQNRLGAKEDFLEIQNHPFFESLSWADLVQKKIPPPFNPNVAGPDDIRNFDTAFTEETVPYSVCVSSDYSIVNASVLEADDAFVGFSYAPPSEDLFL
- RECORDED_CONDITIONS: at 0.1 µM
Examples of molecules with documented inhibition follow.
The answer is to be given in %; state only the numeric part.

CN(C)c1ccc2c(c1)/C(=C/Nc1ccc(S(N)(=O)=O)cc1)C(=O)N2 :: 1.07
CN(C)CCOc1ccc(-c2cc(-c3ccc4c(c3)CCC4=NO)c(-c3ccncc3)o2)cc1 :: 1.69
NC(=O)Cc1ccccc1Oc1nccc(-c2c(-c3ccc(F)cc3)ncn2C2CCNCC2)n1 :: 0.96
NC(=O)c1cc(-c2ccc(F)cc2)cc(-c2ccncc2)c1N :: 3.22

Asked: Enter recorded inhibition with Serine/threonine-protein kinase Sgk3 (Homo sapiens) for CN1CCN(CCCNc2nc3ccc(Oc4ccc(NC(=O)Nc5cc(C(F)(F)F)ccc5F)cc4)cc3[nH]2)CC1 here.
Given back: 3.14

Reference source for all entries: ChEMBL document CHEMBL1961873
